# assay target: Gamma-aminobutyric acid receptor subunit alpha-2/beta-3/gamma-2 (Rattus norvegicus, UniProt P18508+P23576+P63079)
# Sequence (P18508 whole entry): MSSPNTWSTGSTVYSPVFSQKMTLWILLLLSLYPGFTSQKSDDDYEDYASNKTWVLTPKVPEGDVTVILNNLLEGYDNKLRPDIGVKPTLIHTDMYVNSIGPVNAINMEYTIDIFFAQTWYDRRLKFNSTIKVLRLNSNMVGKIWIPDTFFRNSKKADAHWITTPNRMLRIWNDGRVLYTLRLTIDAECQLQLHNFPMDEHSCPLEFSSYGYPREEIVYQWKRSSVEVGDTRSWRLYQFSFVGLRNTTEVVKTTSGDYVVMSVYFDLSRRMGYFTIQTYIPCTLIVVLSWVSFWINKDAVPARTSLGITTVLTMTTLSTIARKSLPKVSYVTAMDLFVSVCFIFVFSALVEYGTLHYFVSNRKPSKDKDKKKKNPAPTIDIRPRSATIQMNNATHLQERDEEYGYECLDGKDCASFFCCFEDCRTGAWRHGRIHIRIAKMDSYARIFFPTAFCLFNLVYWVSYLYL
# Sequence (P23576 whole entry): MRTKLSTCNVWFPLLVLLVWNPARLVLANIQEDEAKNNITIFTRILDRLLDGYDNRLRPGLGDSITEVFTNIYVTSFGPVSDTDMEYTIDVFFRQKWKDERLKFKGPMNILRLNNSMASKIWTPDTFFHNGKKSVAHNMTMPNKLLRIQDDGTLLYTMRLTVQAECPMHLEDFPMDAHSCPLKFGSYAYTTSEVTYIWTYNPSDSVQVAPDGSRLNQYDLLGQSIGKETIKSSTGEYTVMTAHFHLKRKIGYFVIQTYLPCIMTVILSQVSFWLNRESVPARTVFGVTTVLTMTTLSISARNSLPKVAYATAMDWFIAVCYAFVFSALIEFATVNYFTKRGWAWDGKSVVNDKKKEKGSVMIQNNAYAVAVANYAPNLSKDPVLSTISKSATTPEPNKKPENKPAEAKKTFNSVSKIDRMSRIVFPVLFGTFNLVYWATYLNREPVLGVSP
# Sequence (P63079 whole entry): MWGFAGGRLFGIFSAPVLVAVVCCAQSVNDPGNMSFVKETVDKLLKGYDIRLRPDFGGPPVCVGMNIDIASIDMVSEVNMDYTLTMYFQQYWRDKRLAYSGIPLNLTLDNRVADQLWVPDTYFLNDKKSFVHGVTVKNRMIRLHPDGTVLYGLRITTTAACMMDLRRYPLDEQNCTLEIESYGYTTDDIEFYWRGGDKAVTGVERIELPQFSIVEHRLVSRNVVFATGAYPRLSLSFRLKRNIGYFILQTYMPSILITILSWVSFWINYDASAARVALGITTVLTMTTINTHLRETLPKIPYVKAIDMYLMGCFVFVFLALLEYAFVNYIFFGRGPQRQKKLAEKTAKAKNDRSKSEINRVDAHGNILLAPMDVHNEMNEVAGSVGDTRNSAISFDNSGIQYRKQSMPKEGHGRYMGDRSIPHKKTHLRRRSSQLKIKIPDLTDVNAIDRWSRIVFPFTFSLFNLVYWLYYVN
# assay notes: […] rat GABA-A receptor alpha2beta3gamma2 expressed in HEK293 cells by electrophysiology assay
reported property: EC50

> print(dat)
                           molecular.string   result
1  CC(C)[C@@H]1N=C(c2ccccc2)c2cc(Cl)ccc2NC1=S  > 24 µM

====

# assay target: Muscarinic acetylcholine receptor M1 (Homo sapiens)
# Sequence (P11229 whole entry): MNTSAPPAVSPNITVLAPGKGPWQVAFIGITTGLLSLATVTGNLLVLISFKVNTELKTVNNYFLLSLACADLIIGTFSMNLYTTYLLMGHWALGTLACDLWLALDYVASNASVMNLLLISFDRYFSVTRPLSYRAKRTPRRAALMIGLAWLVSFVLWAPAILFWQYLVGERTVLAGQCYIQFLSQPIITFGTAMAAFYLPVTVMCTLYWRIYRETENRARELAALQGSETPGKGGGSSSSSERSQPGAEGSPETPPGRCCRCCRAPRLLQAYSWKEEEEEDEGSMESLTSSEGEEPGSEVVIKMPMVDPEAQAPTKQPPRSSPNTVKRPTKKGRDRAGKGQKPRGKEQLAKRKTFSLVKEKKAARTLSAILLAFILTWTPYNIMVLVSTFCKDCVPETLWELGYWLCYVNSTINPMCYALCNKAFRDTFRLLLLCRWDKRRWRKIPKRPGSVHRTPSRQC
# assay notes: Positive allosteric modulation of human wild type M1 receptor assessed as increase in acetylcholine-induced calcium flux by FLIPR assay
pEC50: −log10 of the molar value.
reported property: pEC50

> print(dat)
                                    molecule  readout.relation  numeric.readout
 1  FC(F)(F)C[C@@H]1N=C(c2ccccc2)c2cc(Cl)ccc2NC1=S                 =             6.51
 2  CC(C)[C@@H]1N=C(c2ccccc2F)c2cc(Cl)ccc2NC1=S                 =             7.10
 3  O=[N+]([O-])c1ccc2c(c1)C(c1ccccc1)=NCC(=S)N2                 =             5.35
 4          Fc1ccccc1C1=NCC(=S)Nc2ccc(I)cc21                 =             5.67
 5        CSc1ccc2c(c1)C(c1ccccc1)=NCC(=S)N2                 =             6.06
 6    C[C@@H]1N=C(c2ccccc2)c2cc(Cl)ccc2NC1=S                 =             6.99
 7             Fc1ccccc1C1=NCC(=S)Nc2ccccc21                 <             5.00
 8         Cc1ccc2c(c1)C(c1ccccc1)=NCC(=S)N2                 =             5.43
 9              S=C1Cc2ccccc2-c2cc(Cl)ccc2N1                 <             5.00
10  CC(C)C[C@@H]1N=C(c2ccccc2Cl)c2cc(Cl)ccc2NC1=S                 <             5.00
11  CCC1CN(c2ccccc2)c2cc(Cl)ccc2NC1=S (stereo unspecified)                 =             7.30
12  CC(C)C[C@@H]1N=C(c2ccccc2)c2cc(Cl)ccc2NC1=S                 =             6.50
13  CC(C)[C@@H]1N=C(N2CCCCC2)c2cc(Cl)ccc2NC1=S                 <             5.00
14  CC(C)[C@@H]1N=C(c2ccccc2)c2ccc(Cl)cc2NC1=S                 =             6.40
15   CCCC1=N[C@@H](C(C)C)C(=S)Nc2ccc(Cl)cc21                 <             5.00
16  CC(C)[C@@H]1N=C(c2ccccc2)c2cc(C(F)(F)F)ccc2NC1=S                 =             7.15
17   CC1N=C(c2ccccc2)c2ccccc2NC1=S (racemic)                 =             6.26
18  CCOC1N=C(c2ccccc2)c2cc(Cl)ccc2NC1=S (racemic)                 <             5.00
19  Fc1ccccc1C1=N[C@H](c2ccccc2)C(=S)Nc2ccc(Cl)cc21                 <             5.00
20  Cc1ccc2c(c1)C(c1ccccc1)=NC(C(C)C)C(=S)N2 (stereo unspecified)                 =             7.21
21          S=C1CC(c2ccccc2)=Nc2cc(Cl)ccc2N1                 <             5.00
22  CCOC(=O)C1N=C(c2ccccc2)c2cc(Cl)ccc2NC1=S (racemic)                 <             5.00
23  CC(C)[C@H]1N=C(c2ccccc2)c2cc(Cl)ccc2NC1=S                 =             6.28
24  CC(C)[C@@H]1N=C(c2cccc(Cl)c2)c2cc(Cl)ccc2NC1=S                 =             6.76
25              S=C1CN=C(c2ccccc2)c2ccccc2N1                 <             5.00
26  CC(C)[C@@H]1N=C(c2cccnc2)c2cc(Cl)ccc2NC1=S                 =             6.56
27  Fc1ccccc1C1=N[C@@H](C2CC2)C(=S)Nc2ccc(Cl)cc21                 =             6.78
28  S=C1Nc2ccc(Cl)cc2C(c2ccccc2)=N[C@H]1CC1CC1                 =             6.60
29  CC(C)(O)C1N=C(c2ccccc2)c2cc(Cl)ccc2NC1=S (racemic)                 =             5.73
30  S=C1COC(c2ccccc2)c2cc(Cl)ccc2N1 (stereo unspecified)                 <             5.00
31          S=C1CN=C(c2ccccc2)c2cc(Br)ccc2N1                 =             6.02
32  CC(C)[C@H]1N=C(c2ccccc2F)c2cc(Cl)ccc2NC1=S                 =             6.38
33  CC(C)[C@@H]1N=C(c2ccc(C(F)(F)F)cc2)c2cc(Cl)ccc2NC1=S                 <             5.00
34  CC(C)C1C(=S)Nc2ccc(Cl)cc2C(c2ccccc2)=[N+]1[O-] (stereo unspecified)                 =             6.46
35         Fc1ccccc1C1=CCC(=S)Nc2ccc(Cl)cc21                 =             6.50
36  CC(=O)c1ccc2c(c1)C(c1ccccc1)=NC(C)C(=S)N2 (stereo unspecified)                 <             5.00
37  CCC[C@@H]1N=C(c2ccccc2)c2cc(Cl)ccc2NC1=S                 =             6.62
38  CC(C)[C@@H]1N=C(c2ccccc2)c2cc(-c3ccccc3)ccc2NC1=S                 =             5.83
39  CC(C)[C@@H]1N=C(c2ccccc2)c2cc(Cl)ccc2NC1=S                 =             7.15
40  CC(C)[C@@H]1N=C(c2ccccn2)c2cc(Cl)ccc2NC1=S                 =             6.54
41   CC[C@@H]1N=C(c2ccccc2)c2cc(Cl)ccc2NC1=S                 =             6.73
42  COC(C)C1N=C(c2ccccc2)c2cc(Cl)ccc2NC1=S (racemic)                 =             6.45
43  CCC[C@@]1(C)N=C(c2ccccc2)c2cc(Cl)ccc2NC1=S                 <             5.00
44  CC(C)C1C(=O)N(c2ccccc2)c2cc(Cl)ccc2NC1=S (stereo unspecified)                 =             6.57
45       CN1C(=S)CN=C(c2ccccc2)c2cc(Cl)ccc21                 <             5.00
46  CC(=O)OC1C=C(c2ccccc2F)c2cc(Cl)ccc2NC1=S (stereo unspecified)                 =             6.19
